Data origin, for the record: patent US5167947A

assay: intraduodenal administration of ethiofos to Rhesus monkeys, plasma levels; type: in vivo; details: in vivo; Rhesus monkey, intraduodenal 150 mg/kg, in the presence of EDTA (47:1 ethiofos to EDTA); read-out: AUC (plasma concentration-time curve)
MEASURED_METRIC: AUC (µM·h)
One number for each entry, in µM·h.

If you can, please state the reported AUC value of NCCCNCCSP(=O)(O)O .
0.55
